Listed here: items and their measured chromatographic logP.
testMethodNotes: physchem

Solved cases (4 shown):
Prompt: I have this molecule here, Cc1nnc(Cl)c(-c2c(F)cccc2F)c1OCC1CC1 , and I need its recorded chromatographic logP.
Response: 3.1

Prompt: Query (molecule): COc1cc(Cl)cc(Oc2c(C)nnc(Cl)c2-c2c(F)cccc2Cl)c1 ; field requested: chromatographic logP
Response: 4.13

Prompt: Endpoint output: chromatographic logP of CCC(C)Sc1c(C)nnc(Cl)c1-c1c(F)cccc1F (stereo not drawn) . Value?
Response: 3.99

Prompt: Quick one: chromatographic logP of Cc1nnc(Cl)c(-c2c(F)cccc2Cl)c1Sc1ccc(Cl)cc1Cl ?
Response: 4.87

More entries:
Prompt: Consider the molecule Cc1nnc(Cl)c(-c2c(F)cccc2Cl)c1OC1CCOCC1 and give its measured chromatographic logP.
Response: 2.68

###

testMethodNotes: physchem
readoutName: chromatographic logP
Please respond with just the number, no unit label.

Sample records with chromatographic logP:
Prompt: Report chromatographic logP for Cc1nnc(Cl)c(-c2c(F)cccc2F)c1N1CCC(C)CC1 please.
Response: 3.87

Prompt: # chromatographic logP lookup, item Cc1nnc(Cl)c(-c2c(F)cccc2F)c1N1CCCC1C (stereo not drawn)
Response: 3.08

Continuing:
Prompt: Report chromatographic logP for Cc1nnc(Cl)c(-c2c(F)cccc2F)c1OCC(C)C please.
Response: 3.57

Prompt: # input molecule: Cc1nnc(Cl)c(-c2c(F)cccc2Cl)c1Oc1cccc(C#N)c1 ; wanted: its chromatographic logP
Response: 3.14

Prompt: Given the entry Cc1nnc(Cl)c(-c2c(F)cccc2Cl)c1Oc1cccc(F)c1 , report its measured chromatographic logP.
Response: 3.65

Prompt: Which chromatographic logP is listed for Cc1nnc(Cl)c(-c2c(F)cccc2Cl)c1N1CCC(C)CC1 ?
Response: 4.11

###

testMethodNotes: physchem
Listed compounds paired with reported chromatographic logP

Below are worked cases with known answers.
Prompt: Requested read-out: chromatographic logP. Entry: Cc1nnc(Cl)c(-c2c(F)cccc2Cl)c1Oc1cccc(Cl)c1
Response: 4.03

Prompt: Which value of chromatographic logP has been reported for Cc1nnc(Cl)c(-c2c(F)cccc2Cl)c1Oc1cc(Cl)ccc1Cl in the records?
Response: 4.27

Prompt: Could you tell me which chromatographic logP is on file for COCC(C)Nc1c(C)nnc(Cl)c1-c1c(F)cccc1F (stereo not shown) ?
Response: 2.25

Prompt: Entry Cc1nnc(Br)c(-c2c(F)cccc2Cl)c1Oc1ccc(Cl)cc1 has what chromatographic logP?
Response: 4.12

Next:
Prompt: What value of measured chromatographic logP is listed for Cc1nnc(Cl)c(-c2c(F)cccc2F)c1N(C)CC(C)C ?
Response: 3.65

Prompt: Returns the measured chromatographic logP for the input compound. Input: Cc1nnc(Cl)c(-c2c(F)cccc2F)c1NCC1CC1
Response: 2.46

Prompt: What value of chromatographic logP has been reported for the following compound? Cc1nnc(Cl)c(-c2c(F)cccc2F)c1N1CCCC1
Response: 2.57

Prompt: Please give the measured chromatographic logP for this compound: Cc1nnc(Cl)c(-c2c(F)cccc2F)c1NCC(C)C
Response: 2.64

Prompt: Would you kindly share the measured chromatographic logP for Cc1nnc(Cl)c(-c2c(F)cccc2Cl)c1Nc1ccc(Cl)cc1 ?
Response: 3.18

Prompt: Which chromatographic logP value belongs to Cc1nn(Cc2ccccc2)c(=O)c(-c2c(F)cccc2Cl)c1O ?
Response: 2.58

###

testMethodNotes: physchem
readoutName: chromatographic logP
Could you respond with only the numeric value?

Example results:
Prompt: Endpoint output: chromatographic logP of Cc1nnc(Cl)c(-c2c(F)cccc2Cl)c1Sc1ccc(Cl)cc1 . Value?
Response: 4.65

Prompt: Param item = Cc1nnc(Cl)c(-c2c(F)cccc2F)c1NC(C)C(C)C (racemic) ; retrieve measured chromatographic logP.
Response: 2.99

Prompt: Name the recorded chromatographic logP for Cc1nnc(Cl)c(-c2c(F)cccc2F)c1NC(C)C .
Response: 2.36

Prompt: Need chromatographic logP of Cc1nnc(Cl)c(-c2c(F)cccc2Cl)c1Sc1cccc(F)c1 , thanks.
Response: 4.08

Prompt: Which chromatographic logP value is on record for Cc1nnc(Cl)c(-c2c(F)cccc2Cl)c1Sc1ccccc1F ?
Response: 3.99

Prompt: What does the record list as chromatographic logP for Cc1nnc(Cl)c(-c2c(F)cccc2Cl)c1N1CCCC1C (stereo not shown) ?
Response: 3.32

Prompt: # chromatographic logP lookup, item Cc1nnc(Cl)c(-c2c(F)cccc2F)c1N[C@H](C)C(C)C
Response: 3.04

Prompt: Any idea what its chromatographic logP is? The compound is Cc1nnc(Cl)c(-c2c(F)cccc2F)c1NCc1ccccc1
Response: 2.67

Continuing:
Prompt: I'd like to know its chromatographic logP. The compound in question is COCCOCCOc1c(C)nnc(Cl)c1-c1c(F)cccc1Cl
Response: 2.58

Prompt: chromatographic logP for Cc1nnc(Cl)c(-c2c(F)cccc2F)c1Sc1ccc(Cl)cc1 ?
Response: 4.35

Values compiled from patent EP2042491A1.
